Molecular target: Recombinant full-length human IDO1 (Homo sapiens)
Construct: Recombinant full-length human IDO1 with a N-terminal hexahistidine tag; hexahistidine (His6) (N); made in house; host or cells: E. coli
Sequence (P14902 whole entry): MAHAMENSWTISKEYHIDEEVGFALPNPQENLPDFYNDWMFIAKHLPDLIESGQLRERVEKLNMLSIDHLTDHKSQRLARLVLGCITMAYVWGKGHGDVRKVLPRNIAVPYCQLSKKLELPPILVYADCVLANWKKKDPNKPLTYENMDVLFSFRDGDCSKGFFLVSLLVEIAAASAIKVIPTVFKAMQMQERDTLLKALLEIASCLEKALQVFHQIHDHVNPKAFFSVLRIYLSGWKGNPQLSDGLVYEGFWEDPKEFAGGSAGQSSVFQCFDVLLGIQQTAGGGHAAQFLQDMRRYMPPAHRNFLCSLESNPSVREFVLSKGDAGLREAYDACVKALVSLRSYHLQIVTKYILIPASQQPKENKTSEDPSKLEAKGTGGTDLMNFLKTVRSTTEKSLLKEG
Assay: IDO1 enzymatic assay (NFK quantified by LCMS)
Assay type: biochemical
Conditions: 2 nM enzyme, 5 μM L-tryptophan, pH6.5, 30 minutes pre-incubation at RT; mean values when measured multiple times; read-out: hIDO activity (IC50 in nM)
Method: 1) Testing Compounds for IDO Inhibitory Activity in an IDO1 Enzymatic Assay: Recombinant full-length human IDO1 with a N-terminal hexahistidine tag expressed in E. coli and purified to homogeneity is incubated at a final concentration of 2 nM in assay buffer consisting of 37.5 mM phosphate buffer at pH6.5 supplemented with 10 mM ascorbic acid, 0.45 μM methylene blue, 50U/ml catalase, 0.01% BSA, and 0.01% Tween 20 (protocol modified from Seegers et al, JBS 2014). […]
observed.property: IC50 (nM)

Consider the reported IC50 for these compounds:
# compound, tgt, IC50 [nM]
data = [
    ("OC(c1cn(-c2ccc3[nH]ccc3c2)nn1)c1c(C2CC2)sc2cncn12 (racemic)", "Recombinant full-length human IDO1 (Homo sapiens)", 9.03),
    ("CC(C)C(=O)Nc1ccc(-n2cc(C(O)c3c(C4CC4)sc4cncn34)nn2)cc1 (racemic)", "Recombinant full-length human IDO1 (Homo sapiens)", 13.5),
    ("OC(c1cn(-c2ccc3c(c2)OCCO3)nn1)c1c(C2CC2)sc2cncn12 (racemic)", "Recombinant full-length human IDO1 (Homo sapiens)", 21.9),
    ("N#CCCNC(=O)c1ccc(-n2cc(C(O)c3c(C4CC4)sc4cncn34)nn2)cc1 (racemic)", "Recombinant full-length human IDO1 (Homo sapiens)", 10),
    ("OC(c1cn(-c2ccc3c(Cl)n[nH]c3c2)nn1)c1c(C2CC2)sc2cncn12 (racemic)", "Recombinant full-length human IDO1 (Homo sapiens)", 34),
]

P. OC(c1nnc(-c2ccccc2)s1)c1c(C2CC2)sc2cncn12 (racemic)
Q. CCc1sc2cncn2c1C(O)c1cn(-c2ccc(O)c(Cl)c2)nn1 (racemic)
R. CC(C)C(=O)Nc1ccc(-n2cc(C(O)c3c(C4CC4)sc4cncn34)nn2)cc1Cl (racemic)
S. CCNC(=O)c1ccc(-n2cc(C(O)c3c(CC)sc4cncn34)nn2)cc1 (racemic)
T. CC(C)(O)CCOc1ccc(-n2cc(C(O)c3c(C4(C)CC4)sc4cncn34)nn2)cc1Cl (racemic)
Request: Sequence the entries by IC50, beginning with the highest number. Return value: ordered labels per request.
Result: R, P, T, S, Q
(R: 273 nM, P: 122 nM, T: 23.6 nM, S: 16.5 nM, Q: 3.82 nM)

Measured values drawn from patent US20200405696A1 for this set.
